test system: TRZAWR (Wheat, Winter, cv Riband); test: Postemergence herbicidal evaluation; type: in vivo, Triticum aestivum; conditions: postemergence, rate 0.0313 kg/ha
VALUE TYPE: TRZAWR herbicidal rating
Give the figure by itself; no unit, no explanation.

Exercise: Looking for the measured TRZAWR herbicidal rating of CCOC(=O)CN1C(=O)C(F)SC1=Nc1cc(-n2c(=O)cc(C(F)(F)F)n(C)c2=O)c(F)cc1Cl (stereo not drawn) [Compound 11] , can you help?
Solution: 4.5

Exercise: Looking for the measured TRZAWR herbicidal rating of COC(=O)CN1C(=O)CSC1=Nc1cc(-n2c(=O)cc(C(F)(F)F)n(C)c2=O)c(F)cc1Cl [Compound 17] , can you help?
Solution: 4.5

Exercise: Looking for the measured TRZAWR herbicidal rating of CC1SC(=Nc2cc(-n3c(=O)cc(C(F)(F)F)n(C)c3=O)c(F)cc2Cl)N(C)C1=O (stereo not drawn) [Compound 9] , can you help?
Solution: 3.5

Exercise: Looking for the measured TRZAWR herbicidal rating of C=CCN1C(=O)C(CC(=O)NOC)SC1=Nc1cc(-n2c(=O)cc(C(F)(F)F)n(C)c2=O)c(F)cc1Cl (stereo not drawn) [Compound 85] , can you help?
Solution: 3.5

Exercise: Looking for the measured TRZAWR herbicidal rating of CCOC(=O)CN1C(=O)C(CC)SC1=Nc1cc(-n2c(=O)cc(C(F)(F)F)n(C)c2=O)c(F)cc1Cl (stereo not drawn) [Compound 13] , can you help?
Solution: 4.5

Exercise: Looking for the measured TRZAWR herbicidal rating of CC1SC(=Nc2cc(N3C(=O)C4=C(CCCC4)C3=O)c(F)cc2Cl)N(C)C1=O (stereo not drawn) [Compound 4] , can you help?
Solution: 3.0

* * *

test system: TRZAWR (Wheat, Winter, cv Riband); experiment: Postemergence herbicidal evaluation; assay type: in vivo, Triticum aestivum; conditions: Rate 0.0158 kg/ha
Task for the reader: assign each of the following compounds its reported Postemergence herbicidal rating TRZAWR.
Give the figure by itself; no unit, no explanation.

Exercise: Looking for the measured Postemergence herbicidal rating TRZAWR of Cn1c(C(F)(F)F)cc(=O)n(-c2cc(N=C3SCC(=O)N3CCC(=O)O)c(Cl)cc2F)c1=O [Compound 30] , can you help?
Solution: 4.0

Exercise: Looking for the measured Postemergence herbicidal rating TRZAWR of CCOC(=O)CN1CCSC1=Nc1cc(-n2nc(C)n(C(F)F)c2=O)c(F)cc1Cl [Compound 36] , can you help?
Solution: 1.5

Exercise: Looking for the measured Postemergence herbicidal rating TRZAWR of CCOC(=O)CN1C(=O)C(CC(=O)NC)SC1=Nc1cc(-n2c(=O)cc(C(F)(F)F)n(C)c2=O)c(F)cc1Cl (centres unmarked) [Compound 57] , can you help?
Solution: 3.0

Exercise: Looking for the measured Postemergence herbicidal rating TRZAWR of CCOC(=O)CN1C(=O)C(CC(=O)O)O/C1=N/c1cc(-n2c(=O)cc(C(F)(F)F)n(C)c2=O)c(F)cc1Cl (centres unmarked) [Compound 41] , can you help?
Solution: 4.0

Exercise: Looking for the measured Postemergence herbicidal rating TRZAWR of CCOC(=O)CN1C(=O)C(CC(=O)OCc2ccccc2)OC1=Nc1cc(-n2c(=O)cc(C(F)(F)F)n(C)c2=O)c(F)cc1Cl (centres unmarked) [Compound 40] , can you help?
Solution: 4.0
